subject.of.test: Nuclear receptor subfamily 4 group A member 2 (Homo sapiens) (UniProt P43354)
Sequence (P43354 whole entry, looked up): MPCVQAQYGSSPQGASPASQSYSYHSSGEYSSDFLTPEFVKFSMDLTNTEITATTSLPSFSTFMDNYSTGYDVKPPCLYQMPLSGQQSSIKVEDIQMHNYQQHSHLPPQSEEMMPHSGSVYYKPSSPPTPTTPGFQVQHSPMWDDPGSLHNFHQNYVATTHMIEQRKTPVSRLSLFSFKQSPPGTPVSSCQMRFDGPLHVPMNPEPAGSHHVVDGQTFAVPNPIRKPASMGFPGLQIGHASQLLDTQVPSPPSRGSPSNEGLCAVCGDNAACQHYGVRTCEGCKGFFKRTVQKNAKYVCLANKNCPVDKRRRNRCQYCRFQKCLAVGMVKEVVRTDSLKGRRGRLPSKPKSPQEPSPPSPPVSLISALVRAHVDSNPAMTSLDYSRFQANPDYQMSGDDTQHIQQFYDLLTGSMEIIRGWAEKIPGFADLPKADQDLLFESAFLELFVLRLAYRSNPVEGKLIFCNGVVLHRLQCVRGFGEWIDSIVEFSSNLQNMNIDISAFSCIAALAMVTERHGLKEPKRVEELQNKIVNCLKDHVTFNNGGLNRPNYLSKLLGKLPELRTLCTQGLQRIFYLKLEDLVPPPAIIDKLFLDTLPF
procedure.text: ATG_NURR1_TRANS: Attagene TRANS-FACTORIAL HepG2 Assay for human Nuclear Receptor Related Protein 1 (NURR1) (AID 2282985)
condition.description: HepG2 Attagene TRANS reporter, mRNA readout
Inconclusive results are not listed. Activity calls are given as the source filed them. How the source made its calls: active means hit-call score of the fitted dose curve at least 0.9, where 1 is the maximum; inconclusive means response in the unintended direction; inactive means score below 0.9.
Answer with one of the outcomes given here: T = active, F = inactive

These recorded examples may help you get a feel for the data.
In [3]: df
Out[3]:
                                   molecule  classification
0  CC(C)=CCCC(C)CC(=O)O (configuration not stated)               F
1               COc1ccc(N)c([N+](=O)[O-])c1               F
2   O=c1c(O)c(-c2ccc(O)cc2)oc2cc(O)cc(O)c12               F
3     NC1CCCCC1N (configuration not stated)               F
4  C=C(C)C(=O)OCCOC1CC2CC1C1C=CCC21 (configuration not stated)               F
5  CCOC(=O)[C@@H](C)Oc1ccc(Oc2nc3ccc(Cl)cc3o2)cc1               F

Next up:
Answer briefly: the call reported for Cc1c(OCC(F)(F)F)ccnc1CS(=O)c1nc2ccccc2[nH]1 (configuration not stated) in this assay. T

----------
subject.of.test: AR (gene 367) (UniProt P10275)
Sequence (P10275 whole entry, looked up): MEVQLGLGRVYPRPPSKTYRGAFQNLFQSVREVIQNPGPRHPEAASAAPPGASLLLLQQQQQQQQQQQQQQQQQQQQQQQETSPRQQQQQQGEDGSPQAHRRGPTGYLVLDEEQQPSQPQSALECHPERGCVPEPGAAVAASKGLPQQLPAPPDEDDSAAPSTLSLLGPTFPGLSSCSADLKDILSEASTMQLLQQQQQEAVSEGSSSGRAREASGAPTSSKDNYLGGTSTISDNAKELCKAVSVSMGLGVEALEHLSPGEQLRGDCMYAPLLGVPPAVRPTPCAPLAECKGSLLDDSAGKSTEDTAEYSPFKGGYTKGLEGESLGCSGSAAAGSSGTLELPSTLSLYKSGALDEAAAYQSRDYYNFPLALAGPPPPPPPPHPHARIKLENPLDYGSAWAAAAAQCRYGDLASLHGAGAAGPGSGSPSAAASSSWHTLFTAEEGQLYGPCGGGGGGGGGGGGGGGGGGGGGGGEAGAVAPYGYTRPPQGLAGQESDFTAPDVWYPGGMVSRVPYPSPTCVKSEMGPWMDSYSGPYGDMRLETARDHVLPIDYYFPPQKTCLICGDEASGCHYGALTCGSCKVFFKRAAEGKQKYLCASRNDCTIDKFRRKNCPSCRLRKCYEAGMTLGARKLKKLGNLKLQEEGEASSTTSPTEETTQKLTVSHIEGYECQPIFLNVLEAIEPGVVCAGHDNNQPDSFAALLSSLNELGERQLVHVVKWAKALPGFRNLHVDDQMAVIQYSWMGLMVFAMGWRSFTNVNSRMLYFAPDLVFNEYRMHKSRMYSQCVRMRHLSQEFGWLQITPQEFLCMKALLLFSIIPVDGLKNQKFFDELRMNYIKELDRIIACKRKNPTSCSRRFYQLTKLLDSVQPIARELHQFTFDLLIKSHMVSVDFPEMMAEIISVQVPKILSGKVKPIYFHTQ
procedure.text: ACEA_AR_antagonist_80hr: ACEA Biosciences xCELLigence Real-Time Cell Analysis on Androgen Receptor Antagonism for Proliferation (AID 2283787);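 further: 22Rv1 human prostate cancer cells with growth followed by electrical impedance; hits lower the impedance growth signal relative to DMSO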
Protocol: ACEA_AR_antagonist is a cell-based, single-readout assay that uses 22Rv1, a human prostate cancer cell line, with measurements taken at 80 hours after chemical dosing in a 384-well plate, although TO5 and TO6 (mc0.srcf) used a 96-well plate. Differences in plate size can be ignored given data normalization.ACEA_AR_antagonist_80hr is one of two assay component(s) measured or calculated from the ACEA_AR assay. […]
Results filed as inconclusive are left out. Activity calls are given as the source filed them. The calls were made as follows: active = hit-call score of the fitted dose curve at least 0.9, where 1 is the maximum; inconclusive = response in the unintended direction; inactive = score below 0.9.
Log the outcome using a class from active, inactive

Hi team, can someone confirm the assay call for CCc1ccc(O)cc1 ? inactive

Answer briefly: the call reported for BrCc1cccc(Oc2ccccc2)c1 in this assay. inactive

Assay result, entry CC(=O)O[C@@H]1CC2CCC1(C)C2(C)C (stereo partly drawn) — outcome? inactive

I'd appreciate the recorded outcome for CCCCCCCCSCCO from this test. inactive

Could you kindly confirm the outcome this assay logged for Nc1ccc(N)c2c1C(=O)c1ccccc1C2=O ? active

Assay result, entry CCCCC1CCC(O)CC1 (stereo not drawn) — outcome? inactive

Test call for this molecule, please: CC1CCC(C(C)C)C(O)C1 (stereo not drawn) inactive

Dear all, I need the recorded test outcome for CCCCCCCCC=CCCCCCCCC1=NCCN1CCO , thank you. inactive

----------
procedure.text: ATG_M_32_CIS: Attagene CIS-FACTORIAL HepG2 Assay for M32 Transcription Factor (Internal Marker) (AID 2282949);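 further: background control marker of the multiplexed CIS panel rather than a real target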
condition.description: HepG2 Attagene cis-factorial M32 reporter, mRNA; actives raise or lower the signal
Activity calls are given as the source filed them. How the source made its calls: active means hit-call score of the fitted dose curve at least 0.9, where 1 is the maximum; inactive means score below 0.9.
quantity.kind: outcome

These solved cases illustrate the format of a correct answer.
In [3]: df
Out[3]:
                                   compound    result
0                      c1ccc(CCc2ccccc2)cc1  inactive
1  Cc1cc(CCC(=O)OCCOCCOCCOC(=O)CCc2cc(C)c(O)c(C(C)(C)C)c2)cc(C(C)(C)C)c1O  inactive
2      COc1ccc(OC)c(N=Nc2c(O)ccc3ccccc23)c1  inactive
3                      O=C(O)CCCCCCCCC(=O)O  inactive
4               CCCCOC(=O)CCCCCCCC(=O)OCCCC  inactive
5                  Cc1ccc(N)c(S(=O)(=O)O)c1  inactive
6  C=C(C)C1CC=C(C)C(=O)C1 (stereo not given)  inactive
7  O=C(Nc1ccc([N+](=O)[O-])cc1)Nc1ccc([N+](=O)[O-])cc1 (tested in a mixture with another compound)  inactive

Quick one: outcome of Cc1occc(=O)c1OC(=O)C(C)C ? inactive

Any idea what its outcome is? The compound is CC(=O)NCCO inactive

Request the reported outcome associated with O=C1NC2NC(=O)NC2N1 (stereo not given) inactive

Sample c1ccc2[nH]cnc2c1 — what was its outcome? inactive

Please give the measured outcome for this compound: CCCCCCC(C)Nc1ccc(Nc2ccccc2)cc1 (stereo not given) inactive

# query: outcome of entry CCOC(=O)C(C#N)=C(c1ccccc1)c1ccccc1 inactive

I am curious: what outcome value has been reported for CCCCCCCCCCCCCCN(CCO)CCO ? inactive

Where do the numbers come from? From PubChem BioAssay (EPA / NIEHS).
